run.description: NCI Yeast Anticancer Drug Screen. Data for the mec2-1 strain (AID 157)
condition.set: S. cerevisiae mec2-1 strain, at 5.0 µM (retest, dose inferred, filed as 0.5), active compounds read high
This is part of a sample that, as a whole, favours compounds with a hit. Of some 79,000 tested, about 15% had one in any assay.
readout.name: growth inhibition (%)
Report only the number, with the unit % understood.

molecule	reported
CN(C)C(=O)c1ccc(SC(=S)NCc2ccccc2)cc1	0
CCCCCCCCCCCCOC(=O)C[n+]1cccc(C(=O)Nc2ccc(Cl)cc2)c1	56

*Q* Provide one value: measured growth inhibition of `C[n+]1c(-c2ccc(/C=C/C=N\NC(=O)c3ccc(C(=O)N/N=C\C=C\c4ccc(-c5cn6ccccc6[n+]5C)cc4)cc3)cc2)cn2ccccc21`
*A* 5

*Q* Provide one value: measured growth inhibition of CCN(CC)CC(O)CNc1ccc(C)c2sc3ccccc3c(=O)c12 (stereo not given)
*A* 7

*Q* Provide one value: measured growth inhibition of `[N-]=[N+]=Nc1ccc(SSCCC(=O)ON2C(=O)CCC2=O)cc1`
*A* 20
